# system_name: CDK7/cyclinH/MAT1 trimeric complex (Homo sapiens)
# measurement_notes: In vitro CDK7 assay, potency of irreversible covalent inhibitors (kinact/KI), coupled PK/LDH ADP readout at 340 nm
# measurement_context: read-out: CDK7 (20 nM enz.) (kinact/KI, M^−1*s^−1), 20 nM enzyme
readout_kind: log10 kinact/KI (log10 of the value in M⁻¹ s⁻¹)

>  <compound>
C=CC(=O)N1CC(N2CCC(c3cc4c(c(C)n3)OCc3c(-c5cnn(C)c5)ccnc3N4)CC2)C1

>  <log10 kinact/KI>
3.00

$$$$
>  <compound>
C=CC(=O)N1CC(N2CC[C@H](c3cc4c(c(C)n3)OCc3c(N5CCOCC5)ccnc3N4)N(C)CC2)C1 (single isomer, unassigned)

>  <log10 kinact/KI>
3.00

$$$$
>  <compound>
CC#CC(=O)N1CCC(N2CC(c3cc4c(c(C5CC5)n3)O[C@H](C)c3c(N5CCOCC5)ccnc3N4)C2)CC1 (single isomer, unassigned)

>  <log10 kinact/KI>
3.31

$$$$
>  <compound>
C=CC(=O)N1CC[C@H](N2CC(c3cc4c(c(C)n3)OCc3c(-c5cnn(C)c5)ccnc3N4)C2)[C@@H](F)C1 (mixture of isomers)

>  <log10 kinact/KI>
2.17

$$$$
>  <compound>
C=CC(=O)N1CC(N2CCC(c3cc4c(cn3)O[C@H](C)c3c(N5CCOCC5)ccnc3N4)CC2)C1 (single isomer, unassigned) [Compound 263]

>  <log10 kinact/KI>
2.49

$$$$
>  <compound>
C#Cc1cc2c(cc1C1CCN(C3CN(C(=O)C=C)C3)CC1)Nc1nccc(N3CCOCC3)c1[C@@H](C)O2 (single isomer, unassigned)

>  <log10 kinact/KI>
0.99

$$$$

###

# system_name: CDK7/cyclinH/MAT1 trimeric complex (Homo sapiens, UniProt P50613)
# Sequence (P50613 whole entry): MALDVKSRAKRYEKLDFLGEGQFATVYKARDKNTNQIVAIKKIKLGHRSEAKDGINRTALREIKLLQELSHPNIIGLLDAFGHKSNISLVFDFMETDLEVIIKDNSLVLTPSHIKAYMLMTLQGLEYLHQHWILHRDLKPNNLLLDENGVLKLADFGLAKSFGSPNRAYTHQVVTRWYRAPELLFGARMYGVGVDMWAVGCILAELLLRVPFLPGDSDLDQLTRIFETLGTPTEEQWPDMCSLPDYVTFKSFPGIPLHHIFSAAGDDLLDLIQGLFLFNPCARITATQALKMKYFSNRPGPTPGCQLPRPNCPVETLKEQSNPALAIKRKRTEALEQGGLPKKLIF
# Sequence (P51946 whole entry partner): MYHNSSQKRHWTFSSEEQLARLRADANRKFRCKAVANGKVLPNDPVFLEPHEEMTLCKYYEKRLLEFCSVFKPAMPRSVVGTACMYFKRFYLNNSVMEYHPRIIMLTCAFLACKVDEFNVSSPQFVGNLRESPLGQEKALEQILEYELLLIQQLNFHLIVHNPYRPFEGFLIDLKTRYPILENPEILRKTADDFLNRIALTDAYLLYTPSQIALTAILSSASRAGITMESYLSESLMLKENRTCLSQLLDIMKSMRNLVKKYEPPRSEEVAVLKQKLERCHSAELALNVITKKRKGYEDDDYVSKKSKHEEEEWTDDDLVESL
# Sequence (P51948 whole entry partner): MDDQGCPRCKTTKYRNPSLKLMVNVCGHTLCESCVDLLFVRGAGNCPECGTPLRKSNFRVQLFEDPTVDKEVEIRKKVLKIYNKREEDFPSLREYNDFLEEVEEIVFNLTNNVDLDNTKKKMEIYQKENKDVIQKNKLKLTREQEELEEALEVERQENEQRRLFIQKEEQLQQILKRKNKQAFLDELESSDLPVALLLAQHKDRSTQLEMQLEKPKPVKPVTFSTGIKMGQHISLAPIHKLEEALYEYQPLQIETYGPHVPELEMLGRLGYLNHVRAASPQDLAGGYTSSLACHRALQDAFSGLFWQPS
# measurement_notes: In vitro CDK7 assay, potency of irreversible covalent inhibitors (kinact/KI), coupled PK/LDH ADP readout at 340 nm
# measurement_context: 20 nM enzyme
Below, each entry is listed alongside its reported CDK7 (20 nM enz.) (kobs/[I], M^−1*s^−1).
readout_kind: CDK7 (20 nM enz.) (kobs/[I], M^−1*s^−1)

>  <compound>
C=CC(=O)N1CC[C@H](N2CC(c3cc4c(c(C(F)(F)F)n3)OCc3c(N5CCOCC5)ccnc3N4)C2)C1 (single isomer, unassigned) [Compound 404]

>  <reported_value>
1280.59 M⁻¹ s⁻¹

$$$$
>  <compound>
C=CC(=O)N1CC(N2CCC(c3cc(Cl)c4c(c3)Nc3nccc(C5CCOCC5)c3CO4)CC2)C1 [Compound 119]

>  <reported_value>
1611.37 M⁻¹ s⁻¹

$$$$
>  <compound>
C=CC(=O)N1CC(N2[C@@H]3CC[C@H]2C[C@@H](c2ccc4c(c2)Nc2nccc(N5CCOCC5)c2CO4)C3)C1 [Compound 68]

>  <reported_value>
1369 M⁻¹ s⁻¹

$$$$

###

# system_name: CDK7/cyclinH/MAT1 trimeric complex (Homo sapiens)
# measurement_notes: In vitro CDK7 assay, potency of irreversible covalent inhibitors (kinact/KI), coupled PK/LDH ADP readout at 340 nm
# measurement_context: read-out: CDK7 (20 nM enz.) (kinact, s^−1), 20 nM enzyme
Property: kinact; scope: individual compounds

>  <compound>
C=CC(=O)N1CC(N2CC(c3cc(C)c4c(c3)Nc3nccc(C5CCOCC5)c3[C@H](C)O4)C2)C1 (single isomer, unassigned)

>  <kinact / s⁻¹>
0.000306

$$$$
>  <compound>
C=CC(=O)N1CCC2(CC1)CC(c1cc(F)c3c(c1)Nc1nccc(N4CCOCC4)c1CO3)C2

>  <kinact / s⁻¹>
1.06e-05

$$$$
>  <compound>
C=CC(=O)N1CC(N2CCC(c3ccc4c(c3)Nc3nccc(C5CCOCC5)c3[C@@H](C)O4)CC2)C1 (single isomer, unassigned)

>  <kinact / s⁻¹>
0.00011

$$$$
>  <compound>
CC#CC(=O)N1CC[C@@H](N2CC(c3cc(C)c4c(c3)Nc3nccc(N5CCOCC5)c3[C@H](C)O4)C2)C1 (single isomer, unassigned)

>  <kinact / s⁻¹>
3.49e-05

$$$$
>  <compound>
C=CC(=O)N1CC(N2CC(c3cc4c(c(C)n3)OC(C)c3c(N5CCOCC5)ccnc3N4)C2)C1 (stereo not shown)

>  <kinact / s⁻¹>
3.44e-05

$$$$
>  <compound>
C=CC(=O)N1CC(N2CC(c3cc4c(c(C#N)n3)OCc3c(C5CCOCC5)ccnc3N4)C2)C1

>  <kinact / s⁻¹>
7.81e-05

$$$$
>  <compound>
C=CC(=O)N1CC[C@@H](N2CC(c3cc4c(c(C)n3)O[C@@H](C)c3c(-c5cnn(C)c5)ccnc3N4)C2)C1 (single isomer, unassigned)

>  <kinact / s⁻¹>
4.55e-05

$$$$
>  <compound>
C=CC(=O)N1CC[C@H](N2CC(c3cc4c(c(C5CC5)n3)O[C@@H](C)c3c(N5CCOCC5)ccnc3N4)C2)C1 (single isomer, unassigned)

>  <kinact / s⁻¹>
5.02e-05

$$$$
>  <compound>
C=CC(=O)N1CC(N2CCC(c3cc4c(c(C5CC5)n3)OCc3c(N5CCOCC5)ccnc3N4)CC2)C1

>  <kinact / s⁻¹>
2.13e-05

$$$$
>  <compound>
C=CC(=O)N1CC[C@H](N2CC(c3cc(C)c4c(c3)Nc3nccc(C5CCOCC5)c3CO4)C2)[C@H](F)C1 (mixture of isomers)

>  <kinact / s⁻¹>
4.11e-05

$$$$
>  <compound>
C=CC(=O)N1CCC(N2CC(c3cc4c(c(C)n3)O[C@@H](C)c3c(C5CCOCC5)ccnc3N4)C2)CC1 (single isomer, unassigned)

>  <kinact / s⁻¹>
3.64e-05

$$$$
>  <compound>
C=CC(=O)N1CC[C@@H](N2CC(c3cc4c(c(C#N)n3)O[C@@H](C)c3c(N5CCOCC5)ccnc3N4)C2)C1 (single isomer, unassigned)

>  <kinact / s⁻¹>
1.85e-05

$$$$
>  <compound>
C=CC(=O)N1CC(N2CCC(c3cc(F)c4c(c3)Nc3nccc(N5CCOCC5)c3CO4)CC2)C1

>  <kinact / s⁻¹>
6.42e-05

$$$$
